- TARGET DESC: T1, H3K9me3 peptide, N-terminal FITC (trimethyl-lysine at K9; fluorescein isothiocyanate (FITC) at the N-terminus)
- T1 chain: ARTKQTARKSTGGKAPR
- TEST PROTOCOL: fluorescence polarisation; 0.5 nM FITC-labelled peptide; chromodomains 200-0.2 µM (wild type) or 50 µM-50 nM (Cbx7.V1 and all Cbx.VDs); 30 min at 25 °C; 25 mM HEPES pH 7.5, 150 mM NaCl, 1 mM DTT, 0.01% TritonX-100; one-site total binding model
- CONDITION PARAMETERS: both partners purified
PARAMETER MEASURED: Kd

Value of Kd reported for the binder Cbx6.VD chromodomain, Asp9/Glu33 (tags removed) (domain or fragment) GEDVFAAESIIKRRIRKGRIEYLVKWEGWAIKYSTWEPEENILDSRLIAAFEQKERERELYGP is > 50 µM
